Data origin, for the record: patent US20250171414A1

# AUC(0-t) per entry
Test: In vivo pharmacokinetic study in SD rats
Conditions: Sprague-Dawley (SD), rat, plasma, 1 mg/kg, PO, fasting, clear
Experimental: After adaptive feeding, the SPF SD rats were each subjected to a single administration of 1 mg/kg or 3 mg/kg of the compound of the present disclosure intragastrically or by tail vein bolus injection. Plasma was collected at specific time points after administration, and the concentration of the compound in plasma was detected by LC-MS/MS (AB Sciex Qtrap 4500).

{"compound": "C[C@H](NC(=O)C1C=C(c2ccc(F)cc2)CCN1)C(=O)N[C@@H]1CCc2nc(N)ccc21 (single isomer, unassigned)", "AUC(0-t), ng·h/mL": 2630}
{"compound": "C[C@H](NC(=O)[C@H]1C=C(c2ccccc2F)CCN1)C(=O)N[C@@H]1CCc2nc(N)ccc21", "AUC(0-t), ng·h/mL": 6110}
{"compound": "C[C@H](NC(=O)[C@H]1C=C(c2cccc(F)c2F)CCN1)C(=O)N[C@@H]1CCc2nc(N)ccc21", "AUC(0-t), ng·h/mL": 6880}
{"compound": "C[C@H](NC(=O)[C@@H]1C=C(c2ccc(F)cc2F)CCN1)C(=O)N[C@@H]1CCc2nc(N)ccc21 (single isomer, unassigned)", "AUC(0-t), ng·h/mL": 6970}
{"compound": "C[C@H](NC(=O)[C@@H]1C=C(c2ccc(F)c(F)c2)CCN1)C(=O)N[C@@H]1CCc2nc(N)ccc21 (single isomer, unassigned)", "AUC(0-t), ng·h/mL": 6930}
{"compound": "C[C@H](NC(=O)[C@H]1C=C(c2cccc(F)c2)CCN1)C(=O)N[C@@H]1CCc2nc(N)ccc21", "AUC(0-t), ng·h/mL": 3360}
{"compound": "C[C@H](NC(=O)[C@@H]1C=C(c2ccc(Cl)cc2)CCN1)C(=O)N[C@@H]1CCc2nc(N)ccc21 (single isomer, unassigned)", "AUC(0-t), ng·h/mL": 3240}

* * *

test: In vivo pharmacokinetic study in SD rats; conditions: Sprague-Dawley (SD), rat, plasma, 1 mg/kg, PO, fasting, clear
// NB: equality with 4 h counts as Not met; only half-life strictly below is Met

{"molecule": "C[C@H](NC(=O)[C@H]1C=C(c2ccccc2F)CCN1)C(=O)N[C@@H]1CCc2nc(N)ccc21 [Compound L082]", "labelValue": "Met"}
{"molecule": "C[C@H](NC(=O)[C@H]1C=C(c2cccc(F)c2F)CCN1)C(=O)N[C@@H]1CCc2nc(N)ccc21 [Compound L084]", "labelValue": "Met"}
{"molecule": "C[C@H](NC(=O)[C@@H]1C=C(c2ccc(F)c(F)c2)CCN1)C(=O)N[C@@H]1CCc2nc(N)ccc21 (single isomer, unassigned) [Compound L069-IS-02]", "labelValue": "Met"}
{"molecule": "C[C@H](NC(=O)[C@@H]1C=C(c2ccc(Cl)cc2)CCN1)C(=O)N[C@@H]1CCc2nc(N)ccc21 (single isomer, unassigned) [Compound L066-IS-02]", "labelValue": "Not met"}
{"molecule": "C[C@H](NC(=O)[C@H]1C=C(c2cccc(F)c2)CCN1)C(=O)N[C@@H]1CCc2nc(N)ccc21 [Compound L083]", "labelValue": "Met"}
{"molecule": "C[C@H](NC(=O)[C@@H]1C=C(c2ccc(F)cc2F)CCN1)C(=O)N[C@@H]1CCc2nc(N)ccc21 (single isomer, unassigned) [Compound L076-IS-02]", "labelValue": "Not met"}
{"molecule": "C[C@H](NC(=O)C1C=C(c2ccc(F)cc2)CCN1)C(=O)N[C@@H]1CCc2nc(N)ccc21 (single isomer, unassigned) [Compound L064-IS-02]", "labelValue": "Not met"}

* * *

test: In vivo pharmacokinetic study in SD rats; conditions: 1 mg/kg, IV, not fasting, clear
Recorded measurements of AUClast, one per entry

{"compound": "C[C@H](NC(=O)[C@H]1C[C@H](Cc2ccc(F)cc2)CN1)C(=O)N[C@@H]1CCc2nc(N)ccc21", "measureUnit": "ng·h/mL", "AUClast": 299766}
{"compound": "C[C@H](NC(=O)[C@H]1C[C@H](Cc2ccc(F)c(Cl)c2)CN1)C(=O)NC1CCc2nc(N)ccc21 (stereo partly drawn)", "measureUnit": "ng·h/mL", "AUClast": 97054}
{"compound": "C[C@H](NC(=O)[C@H]1C[C@H](Cc2ccc(F)cc2)CN1)C(=O)NC1CCc2nc(N)ccc21 (stereo partly drawn)", "measureUnit": "ng·h/mL", "AUClast": 54837}
{"compound": "C[C@H](NC(=O)[C@H]1CC(C(F)(F)c2ccc(F)cc2)CN1)C(=O)N[C@@H]1CCc2nc(N)ccc21 (stereo partly drawn)", "measureUnit": "ng·h/mL", "AUClast": 16723}
{"compound": "C[C@H](NC(=O)[C@H]1C[C@H](Cc2cccc(Cl)c2)CN1)C(=O)NC1CCc2nc(N)ccc21 (stereo partly drawn)", "measureUnit": "ng·h/mL", "AUClast": 89916}
{"compound": "C[C@H](NC(=O)[C@H]1C[C@H](Cc2ccc(Cl)cc2)CN1)C(=O)NC1CCc2nc(N)ccc21 (stereo partly drawn)", "measureUnit": "ng·h/mL", "AUClast": 95060}

* * *

test: In vivo pharmacokinetic study in SD rats; settings: Sprague-Dawley (SD), rat, plasma, 1 mg/kg, IV, not fasting, clear

{"compound": "C[C@H](NC(=O)[C@@H]1C=C(c2ccc(Cl)cc2)CCN1)C(=O)N[C@@H]1CCc2nc(N)ccc21 (single isomer, unassigned) [Compound L066-IS-02]", "AUC(0-t) (ng·h/mL)": 17100}
{"compound": "C[C@H](NC(=O)[C@@H]1C=C(c2ccc(F)c(F)c2)CCN1)C(=O)N[C@@H]1CCc2nc(N)ccc21 (single isomer, unassigned) [Compound L069-IS-02]", "AUC(0-t) (ng·h/mL)": 20000}
{"compound": "C[C@H](NC(=O)[C@H]1C=C(c2cccc(F)c2)CCN1)C(=O)N[C@@H]1CCc2nc(N)ccc21 [Compound L083]", "AUC(0-t) (ng·h/mL)": 16400}

* * *

assay: In vivo pharmacokinetic study in SD rats; details: 1 mg/kg, IV, not fasting, clear
measureName: Cmax (ng/mL)

{"molecule": "C[C@H](NC(=O)[C@H]1C[C@H](Cc2ccc(F)cc2)CN1)C(=O)NC1CCc2nc(N)ccc21 (stereo partly shown)", "measureName": "Cmax", "measValue": 7297}
{"molecule": "C[C@H](NC(=O)[C@H]1C[C@H](Cc2ccc(Cl)cc2)CN1)C(=O)NC1CCc2nc(N)ccc21 (stereo partly shown)", "measureName": "Cmax", "measValue": 25400}
{"molecule": "C[C@H](NC(=O)[C@H]1C[C@H](Cc2ccc(F)cc2)CN1)C(=O)N[C@@H]1CCc2nc(N)ccc21", "measureName": "Cmax", "measValue": 23267}
{"molecule": "C[C@H](NC(=O)[C@H]1C[C@H](Cc2cccc(Cl)c2)CN1)C(=O)NC1CCc2nc(N)ccc21 (stereo partly shown)", "measureName": "Cmax", "measValue": 24633}
